Below, each of the binders is paired with its reported MFI value.
Target: T1, HLA-A*02:01 on T2 cells alone (no peptide added) (human)
T1 construct: TAP-deficient T2 cells without pulsed peptide; negative control target, and the HLA molecule whose stabilisation by peptides is read in the T2 stabilization assay; also called HLA-A*02 molecule; HLA-A2 molecule
Assay: flow cytometry, phage on T2 cells, no peptide
assay-readout: MFI

>>> data_value("EXT017-53 scFv phage clone (scFv, full-length scFv with His+HA tags; also called EXT017-53 phage) scFv: NFMLTQPHSVSESPGKTVTISCTRSSGSIASHYVQWYQQRPGSSPTTVIYENNQRPSGVPDRFSGSIDSSSNSASLTISGLKTEDEADYYCQSYDRSNHVVFGGGTKLTVLGSRGGGGSGGGGSGGGGSLEMAQVQLVQSGAEVKKPGASVKVSCKASGYTFTNYYIHWVRQAPGEGLEWMGIIRPSGGNTNYAQKFQGRVTMTRDTSTRTVYMELSSLRSEDTAVYYCARSWNSRDVDSWGQGTLVTVSSTSGQAGQHHHHHHGAYPYDVPDYAS")
89.5
>>> data_value("EXT017-32 scFv phage clone (scFv, also called EXT017-32 phage; phage clone #32) scFv: QSVLTQPPSVSVAPGKTARITCGGNNIGSKSVHWYQQKPGQAPVLVIYYDSDRPSGIPERFSGSNSGNTATLTISRVEAGDEADYYCQVWDSSSDHYVFGTGTKVTVLGSRGGGGSGGGGSGGGGSLEMAEVQLVESGGGVVQPGRSLRLSCAASGFTFNNHAMHWVRQAPGKGLEWVAVISFDGDDKFYADSVKGRFTISRDNSRNTLFLQMNNLRPEDTAVYYCSRDPYHFASGSYSYFDYWGQGTLVTVSSTSGQAGQHHHHHHGAYPYDVPDYAS")
91.8
>>> data_value("EXT017-20 scFv phage clone (scFv, full-length scFv with His+HA tags; also called EXT017-20 phage) scFv: QSVVTQPPSVSAAPGQKVTISCSGSSSNIGAGYDVHWYQQLPGTAPKLLIYGNSNRPSGVPDRFSGSKSGTSASLAITGLQAEDEADYYCQSYDSSLSGSVFGGGTKLTVLGSRGGGGSGGGGSGGGGSLEMAEVQLVQSGAEVKKPGSSVKVSCKASGGTFSSYAISWVRQAPGQGLEWMGGIIPIFGTANYAQKFQGRVTITADESTSTAYMELSSLRSEDTAVYYCARYSYKYGELDTWGQGTLVTVSSTSGQAGQHHHHHHGAYPYDVPDYAS")
91.3
>>> data_value("EXT017-54 scFv phage clone (scFv, full-length scFv with His+HA tags; also called EXT017-54 phage) scFv: QAVLTQPPSLSGGPRQRVTISCSGSTSNIGKNGVSWYQQLPGKAPKLLIYNDHLLSSGVSDRFSGSKSGTSASLAISGLQSDDEADYYCATWDDTLDLPLFGGGTKVTVLGSRGGGGSGGGGSGGGGSLEMAQMQLVQSGAEVEKPGASVKLSCKASGGTFSSYAISWVRQAPGQGLEWMGGIIPIFGTANYAQKFQGRVTITADESTSTAYMELSSLRSEDTAVYYCARPSYYSIKSAWDHWGQGTLVTVSSTSGQAGQHHHHHHGAYPYDVPDYAS")
89.9
>>> data_value("EXT017-17 scFv phage clone (scFv, fusion to the phage coat protein not described; also called EXT017-17 phage; phage clone #17) scFv: QSVLTQPPSVSGAPGQRVTISCTGSSSNIGAGYDVHWYQQLPGTAPKLLIYGNSNRPSGVPDRFSGSKSGTSASLAITGLQAEDEADYYCQSYDSSLSGYVFGTGTKVTVLGSRGGGGSGGGGSGGGGSLEMAEVQLVQSGAEVKKPGSSVKVSCKASGDTFSRYAISWVRQAPGQGLEWMGRIIPIFGTPNYAQKFQGRVTITADEFTSTAYMELSSLRSEDTAMYYCARSIYRYSEYDHWGQGTLVTVSSTSGQAGQHHHHHHGAYPYDVPDYAS")
92.9
